System: HCV 1a-H77 subgenomic replicon
Test: microbe, parasite or virus in culture
Format: cell-based, HCV genotype 1a
Settings: Hepatitis C virus, stable replicon, 5% FBS, absence of human plasma; read-out: Stable Replicon 1a H77 5% FBS EC50
pEC50: −log10 of the molar value.
Lab note: compare pEC50 against 8. Equal or greater, write criterion met. Smaller, write criterion not met.

>>> print(df.to_string())
                                    molecule                   tested_target        group_label
 0  CS(=O)(=O)N(CCCCCO)c1cc2oc(-c3ccc(F)cc3)c(-c3ncc[nH]3)c2cc1C1CC1 [Example 88]  HCV 1a-H77 subgenomic replicon      criterion met
 1  CCN(c1cc2oc(-c3ccc(F)cc3)c(-c3ncc[nH]3)c2cc1C1CC1)S(C)(=O)=O [Example 56]  HCV 1a-H77 subgenomic replicon  criterion not met
 2  CCCN(c1cc2oc(-c3ccc(F)cc3)c(-c3ncc[nH]3)c2cc1C1CC1)S(C)(=O)=O [Example 64]  HCV 1a-H77 subgenomic replicon  criterion not met
 3  CC(C)CN(c1cc2oc(-c3ccc(F)cc3)c(-c3ncc[nH]3)c2cc1C1CC1)S(C)(=O)=O [Example 66]  HCV 1a-H77 subgenomic replicon  criterion not met
 4  CC(C)N(c1cc2oc(-c3ccc(F)cc3)c(-c3ncc[nH]3)c2cc1C1CC1)S(C)(=O)=O [Example 52]  HCV 1a-H77 subgenomic replicon  criterion not met
 5  Cc1ncsc1CCN(c1cc2oc(-c3ccc(F)cc3)c(-c3ncc[nH]3)c2cc1C1CC1)S(C)(=O)=O [Example 78]  HCV 1a-H77 subgenomic replicon  criterion not met
 6  CS(=O)(=O)N(CCCc1nnn[nH]1)c1cc2oc(-c3ccc(F)cc3)c(-c3ncc[nH]3)c2cc1C1CC1 [Example 174]  HCV 1a-H77 subgenomic replicon  criterion not met
 7  CC(O)CN(c1cc2oc(-c3ccc(F)cc3)c(-c3ncc[nH]3)c2cc1C1CC1)S(C)(=O)=O (stereo not drawn) [Example 98]  HCV 1a-H77 subgenomic replicon  criterion not met
 8  CS(=O)(=O)N(CCN1CCOCC1)c1cc2oc(-c3ccc(F)cc3)c(-c3ncc[nH]3)c2cc1C1CC1 [Example 58]  HCV 1a-H77 subgenomic replicon  criterion not met
 9  CC(C)CCN(c1cn2nc(-c3ccc(F)cc3)c(-c3ncc[nH]3)c2cc1C1CC1)S(C)(=O)=O [Example 17]  HCV 1a-H77 subgenomic replicon  criterion not met
10  CC(C)CCN(c1cc2oc(-c3ccc(F)cc3)c(-c3nccc(=O)[nH]3)c2cc1C1CC1)S(C)(=O)=O [Example 161]  HCV 1a-H77 subgenomic replicon  criterion not met
11  CC(C)CCN(c1cc2oc(-c3ccc(Nc4ccccc4)cc3)c(-c3ncc[nH]3)c2cc1C1CC1)S(C)(=O)=O [Example 18]  HCV 1a-H77 subgenomic replicon      criterion met

---

System: HCV 1b-BB7 subgenomic replicon
Assay: microbe, parasite or virus in culture
Format: cell-based, HCV genotype 1b
Conditions: Hepatitis C virus, stable replicon, strain 1b BB7, 5% FBS + 40% human plasma; read-out: 1b BB7 5% FBS + 40% Human Plasma EC50
pEC50: −log10 of the molar value.
Lab note: compare pEC50 against 7. Equal or greater, write Satisfied. Smaller, write Not satisfied.

                                    compound    group_label
 0  CC(C)N(c1cc2oc(-c3ccc(F)cc3)c(-c3ncc[nH]3)c2cc1C1CC1)S(C)(=O)=O [Example 52]  Not satisfied
 1  CS(=O)(=O)N(CCCc1noc(=S)[nH]1)c1cc2oc(-c3ccc(F)cc3)c(C3=NOCCN3)c2cc1C1CC1 [Example 183]  Not satisfied
 2  CC(C)CCN(c1cc2oc(-c3ccc(F)cc3)c(C3=NOCC(=O)N3)c2cc1C1CC1)S(C)(=O)=O [Example 162]  Not satisfied
 3  CS(=O)(=O)N(CCCC(N)=O)c1cc2oc(-c3ccc(F)cc3)c(-c3ncc[nH]3)c2cc1C1CC1 [Example 108]      Satisfied
 4  CS(=O)(=O)Nc1cc2oc(-c3ccc(F)cc3)c(C3=NOCN3)c2cc1C1CC1 [Example 173]  Not satisfied
 5  C[S+]([O-])c1ccc(-c2ncc(CN(c3ccc4c(-c5ncc[nH]5)c(-c5ccccc5)oc4c3)S(C)(=O)=O)s2)cc1 (centres unmarked) [Example 24]  Not satisfied
 6  COC(=O)CCCN(c1cc2oc(-c3ccc(F)cc3)c(-c3ncc[nH]3)c2cc1C1CC1)S(C)(=O)=O [Example 68]  Not satisfied
 7  COc1ccc(CN(c2cc3oc(-c4ccc(F)cc4)c(-c4nc(Cl)c[nH]4)c3cc2C2CC2)S(C)(=O)=O)cc1 [Example 159]  Not satisfied
 8  CS(=O)(=O)N(CCCc1noc(=O)[nH]1)c1cc2oc(-c3ccc(F)cc3)c(C3=NOCCN3)c2cc1C1CC1 [Example 182]  Not satisfied
 9  CS(=O)(=O)N(CC1CCOCC1)c1cc2oc(-c3ccc(F)cc3)c(-c3ncc[nH]3)c2cc1C1CC1 [Example 38]  Not satisfied
10  CS(=O)(=O)N(CCC(F)(F)F)c1cc2oc(-c3ccc(F)cc3)c(C3=NOCCN3)c2cc1C1CC1 [Example 118]  Not satisfied
11  CS(=O)(=O)N(CCO)c1cc2oc(-c3ccc(F)cc3)c(C3=NOCCN3)c2cc1C1CC1 [Example 136]  Not satisfied
12  CS(=O)(=O)CCCCN(c1cc2oc(-c3ccc(F)cc3)c(-c3ncc[nH]3)c2cc1C1CC1)S(C)(=O)=O [Example 6]      Satisfied
13  CC(C)CCN(c1cc2oc(-c3ccc(F)cc3)c(C3=NOC(C)N3)c2cc1C1CC1)S(C)(=O)=O (centres unmarked) [Example 14]  Not satisfied
14  Cn1cnc2ccc(-c3ncc(CN(c4ccc5c(-c6ncc[nH]6)c(-c6ccccc6)oc5c4)S(C)(=O)=O)s3)cc21 [Example 30]  Not satisfied
15  C[S+]([O-])CCCN(c1cc2oc(-c3ccc(F)cc3)c(C3=NOCCN3)c2cc1C1CC1)S(C)(=O)=O (centres unmarked) [Example 139]  Not satisfied
16  CS(=O)(=O)N(CCCO)c1cc2oc(-c3ccc(F)cc3)c(-c3ncc[nH]3)c2cc1C1CC1 [Example 65]      Satisfied
17  CN(C)CCCN(c1cc2oc(-c3ccc(F)cc3)c(-c3ncc[nH]3)c2cc1C1CC1)S(C)(=O)=O [Example 59]      Satisfied
